# SYSTEM NAME: T1, eukaryotic translation initiation factor 4E (eIF4E), full length human (human, UniProt P06730 2-217)
# T1 construct: mature; read as P06730; also called eIF4E protein
# T1 sequence (P06730 2-217): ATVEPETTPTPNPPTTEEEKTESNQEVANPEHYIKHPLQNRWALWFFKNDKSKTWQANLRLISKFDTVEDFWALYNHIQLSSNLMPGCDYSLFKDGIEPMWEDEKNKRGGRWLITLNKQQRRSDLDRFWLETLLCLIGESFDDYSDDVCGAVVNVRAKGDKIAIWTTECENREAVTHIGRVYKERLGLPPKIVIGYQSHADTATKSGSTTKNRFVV
# RUN DESCRIPTION: ITC, peptide titrated into eIF4E, 20° C.
Square brackets hold non-standard residues; d marks the D form. Ends that are not written are not given here. αMeF = C[C@](N)(Cc1ccccc1)C(=O)O; Ac5c = NC1(C(=O)O)CCCC1
REPORTED ENDPOINT: Kd
Lab note: write values as number then unit, every time.

Would you mind telling me what Kd value was observed for YDREFLLGFQF (not fully specified (C-terminus), also called truncated Tr2) [Tr2 peptide (truncated 11mer eIF4G1 peptide)] ?
1040 nM

Now try YDREXLLXFQF (not fully specified; Cα-methyl-L-phenylalanine at position 628; 1-aminocyclopentanecarboxylic acid (A5C) at position 631, also called truncated modified Tr2_me5-1 peptide) [Tr2_me5-1 peptide (YDRE*LL5FQF)] .
146 nM

Further, for KKRYDRE[αMeF]LL[Ac5c]FQF (not fully specified (C-terminus), also called modified 14mer eIF4G1_me5 peptide; helically stabilized peptide) [eIF4G1_me5 peptide (KKRYDRE*LL5FQF)] ?
9.43 nM
